Molecular target: human PAD4 (Homo sapiens, UniProt Q9UM07)
Construct: human PAD4 (NM_012387), A2P663, was PCR amplified; His-SUMO (N, cleaved yes)
Sequence (Q9UM07 2-663): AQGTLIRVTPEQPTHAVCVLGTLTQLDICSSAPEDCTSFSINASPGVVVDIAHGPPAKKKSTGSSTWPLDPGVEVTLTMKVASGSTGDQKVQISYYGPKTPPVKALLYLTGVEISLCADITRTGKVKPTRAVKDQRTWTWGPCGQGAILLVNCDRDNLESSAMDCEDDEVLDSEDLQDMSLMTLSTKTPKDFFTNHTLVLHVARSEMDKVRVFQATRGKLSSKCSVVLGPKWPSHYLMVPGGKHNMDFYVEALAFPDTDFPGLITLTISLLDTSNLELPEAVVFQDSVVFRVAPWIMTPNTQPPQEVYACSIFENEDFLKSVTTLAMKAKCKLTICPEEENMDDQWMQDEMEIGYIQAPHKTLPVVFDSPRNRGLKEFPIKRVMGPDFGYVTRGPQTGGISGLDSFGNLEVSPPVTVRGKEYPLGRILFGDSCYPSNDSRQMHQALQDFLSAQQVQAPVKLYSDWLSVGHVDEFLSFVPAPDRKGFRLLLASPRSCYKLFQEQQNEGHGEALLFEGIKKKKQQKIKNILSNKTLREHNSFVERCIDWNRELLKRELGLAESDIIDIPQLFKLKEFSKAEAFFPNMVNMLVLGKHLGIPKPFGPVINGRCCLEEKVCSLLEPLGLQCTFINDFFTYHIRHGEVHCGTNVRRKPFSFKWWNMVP
Test: In vitro PAD4 BAEE biochemical assay
Conditions: human PAD4, BAEE substrate; 5 nM PAD4, 2 mM calcium chloride, 3 mM BAEE; geometric mean of multiple experiments
Description: The PCR product was ligated into linearized pET-SUMO vector (Invitrogen, Carlsbad, CA), which is part of the Champion™ pET SUMO Protein Expression System. […] The enzymatic activity of human PAD4 was monitored in a biochemical assay in the presence or absence of compounds using the small peptidyl arginine mimic BAEE (Na-Benzoyl-L-arginine ethyl ester hydrochloride) as substrate. […] Levels of ammonia were monitored by using an amine coupling reaction and were indicative of PAD4 enzymatic activity. […]
pIC50: −log10 of the molar value.
Please mark rule met if the recorded pIC50 is equal to or greater than 7, and rule not met if it falls below.

>>> group("COc1cc(C(=O)N2CCC[C@@H](N)C2)cc2nc(-c3cc4ccc(C(NC(C)=O)C(C)C)nc4n3CC3CC3)c(C)n12 (stereo partly drawn)")
"rule not met"
>>> group("COc1cc(C(=O)N2[C@H]3CC[C@@H]2[C@H](N)C3)cc2nc(-c3cc4ccc([C@@H](C)NC(=O)c5ccc(Cl)nc5)nc4n3CC3CC3)c(C)n12")
"rule met"
>>> group("COc1cc(C(=O)N2[C@H]3CC[C@@H]2[C@H](N)C3)cc2nc(-c3cc4ccc(C5=CC(=O)NCC5)nc4n3CC3CC3)c(C)n12")
"rule not met"
>>> group("COc1cc(C(=O)N2[C@H]3CC[C@@H]2[C@H](N)C3)cc2nc(-c3cc4ccc([C@@H](C)Nc5ccc(F)cn5)nc4n3CC3CC3)c(C)n12")
"rule not met"
>>> group("COc1cc(C(=O)N2[C@H]3CC[C@@H]2[C@H](N)C3)cc2nc(-c3cc4ccc(N[C@H](C)C(F)(F)F)nc4n3CC3CC3)c(C)n12")
"rule not met"
>>> group("COc1cc(C(=O)N2CCC[C@@H](N)C2)cc2nc(-c3cc4ccc([C@@H](C)NC(=O)OC5CCCC5)nc4n3CC3CC3)c(C)n12")
"rule not met"
>>> group("COc1cc(C(=O)N2[C@H]3CC[C@@H]2[C@H](N)C3)cc2nc(-c3cc4ccc([C@@H](C)NC(=O)C5CCOCC5)nc4n3CC3CC3)c(C3CC3)n12")
"rule met"
>>> group("COc1cc(C(=O)N[C@H]2CNCC[C@@H]2OC)cc2nc(-c3cc4ccc(N(C(F)F)S(C)(=O)=O)nc4n3CC3CC3)c(C)n12")
"rule not met"

meta.source: patent US12240862B2
